Provenance of the data: PubChem BioAssay (NCI)

- Test system: MDA-MB-468 breast
- Assay overview: NCI tumour cell line growth inhibition, 48 h
Answer false if TGI is under 4 µM, and true if it is 4 µM or more.

Form field: TGI at least 4 µM? Entry: O=C(c1ccc(O)cc1)C1[C@H](c2ccc(Cl)cc2)[C@@H](c2ccccc2)NC12C(=O)Nc1ccccc12 (some centres not stated)
true

Please indicate if the recorded TGI for O=c1oc2ccc(-c3ccc(F)cc3F)cc2c(=O)n1-c1ccc(F)cc1 meets or exceeds 4 µM.
true

Exam item: decide whether the reported TGI for Cc1nnc(NC(=O)c2nc(S(=O)(=O)Cc3ccc(F)cc3)ncc2Cl)s1 is at least 4 µM.
false

Assess whether reported TGI for O=C(N/N=C/c1ccc[nH]1)c1[nH]c2ccc(Br)cc2c1-c1ccccc1 sits at 4 µM or higher.
false

Check this molecule for TGI at or above 4 µM: Cc1cc(C)cc(NC2=C(Cl)C(=O)c3nc(C)ccc3C2=O)c1
false

I'd appreciate it if you could say whether C=C1C(=O)O[C@H]2[C@H]1CC/C(COC(=O)NCc1ccc(Cn3c(=O)sn(-c4ccc(OC)cc4)c3=O)cc1)=C\CC[C@@]1(C)O[C@@H]21 has TGI at least equal to 4 µM.
false

Textbook exercise: given the entry COCCOc1ccc(-c2nc3ccc(-c4nc5ccc(N6CCN(C)CC6)cc5[nH]4)cc3[nH]2)cc1 , state whether its TGI is greater than or equal to 4 µM.
true

###

- Test system: T-47D breast
- Assay overview: NCI tumour cell line growth inhibition, 48 h
Measured parameter: GI50

Look at this compound and give its reported GI50. Cc1cc(C)cc(Oc2cccc(-c3c(C)nnn3C3CCN(CCN(C)C)CC3)n2)c1
2 µM

Can you look up the measured GI50 of O=C(CSc1nc2ccccc2c(=O)n1-c1ccc(Cl)cc1)Nc1ccc(-c2nc3ccc([N+](=O)[O-])cc3[nH]2)cc1 for me?
1.41 µM

Recorded GI50 for COc1cccc2nc(Nc3ccc(F)c(NC(=O)c4ccc(CN5CCN(C)CC5)c(C(F)(F)F)c4)c3)ccc12 , please?
14.8 µM

For N#Cc1c(-c2ccccc2Cl)cc(-c2ccc3ccccc3c2)[nH]c1=O , what is its reported GI50?
27.3 µM

###

- Test system: SK-MEL-2 melanoma
- Assay overview: NCI tumour cell line growth inhibition, 48 h
Measured parameter: GI50

Give recorded GI50 with SK-MEL-2 melanoma for the following compound: O=C(c1ccc(O)cc1)C1[C@H](c2ccc(Cl)cc2)[C@@H](c2ccccc2)NC12C(=O)Nc1ccccc12 (some centres undefined)
6.03 µM

// lookup GI50 | system=SK-MEL-2 melanoma | key= N#Cc1ccc(/C=N/NC(=O)c2[nH]c3ccc(Br)cc3c2-c2ccccc2)o1
0.294 µM

Query the reported GI50 for SK-MEL-2 melanoma; item: O=c1oc2ccc(-c3ccc(F)cc3F)cc2c(=O)n1-c1ccc(F)cc1
1.79 µM

Recall the recorded GI50 for N#Cc1c(-c2ccccc2Cl)cc(-c2ccc3ccccc3c2)[nH]c1=O with SK-MEL-2 melanoma and state it.
14.9 µM

###

- System: SK-OV-3 ovarian
- Assay overview: NCI tumour cell line growth inhibition, 48 h
Answer each item with its documented GI50.

Could you share which GI50 value was measured for O=C(c1ccc(O)cc1)C1[C@H](c2ccc(Cl)cc2)[C@@H](c2ccccc2)NC12C(=O)Nc1ccccc12 (stereo not given in full) ?
7320 nM

Fill in: GI50 of Cc1cc(C)cc(Oc2cccc(-c3c(C)nnn3C3CCN(CCN(C)C)CC3)n2)c1 is ___
893 nM

Can you share its GI50? I mean this compound: O=C(CSc1nc2ccccc2c(=O)n1-c1ccc(Cl)cc1)Nc1ccc(-c2nc3ccc([N+](=O)[O-])cc3[nH]2)cc1
2820 nM

What measured GI50 goes with O=c1oc2ccc(-c3ccc(F)cc3F)cc2c(=O)n1-c1ccc(F)cc1 ?
2150 nM

Reported GI50, compound N#Cc1ccc(/C=N/NC(=O)c2[nH]c3ccc(Br)cc3c2-c2ccccc2)o1 : ____
513 nM

###

Exercise: state measured TGI for each of the compounds provided.
- Test system: HT29 colon
- Assay overview: NCI tumour cell line growth inhibition, 48 h

# lookup: TGI of N#Cc1ccc(/C=N/NC(=O)c2[nH]c3ccc(Br)cc3c2-c2ccccc2)o1
2.52 µM

Recorded TGI for O=C(CSc1nc2ccccc2c(=O)n1-c1ccc(Cl)cc1)Nc1ccc(-c2nc3ccc([N+](=O)[O-])cc3[nH]2)cc1 , please?
11.4 µM

// TGI lookup, key: N#Cc1c(-c2ccccc2Cl)cc(-c2ccc3ccccc3c2)[nH]c1=O
> 100 µM

Suppose we examine the compound O=C(c1ccc(O)cc1)C1[C@H](c2ccc(Cl)cc2)[C@@H](c2ccccc2)NC12C(=O)Nc1ccccc12 (stereo not given in full) ; what TGI value has been reported?
13.3 µM

Return reported TGI; argument: Cc1cc(C)cc(Oc2cccc(-c3c(C)nnn3C3CCN(CCN(C)C)CC3)n2)c1
5.54 µM

###

- System: MALME-3M melanoma
- Assay overview: NCI tumour cell line growth inhibition, 48 h
I'd appreciate it if you could supply TGI values for the items below.
The reply should consist of the numeric value with the unit placed after it.

Looking for the measured TGI of Cc1cc(C)cc(Oc2cccc(-c3c(C)nnn3C3CCN(CCN(C)C)CC3)n2)c1 , can you help?
13.7 µM

For the compound shown here, O=c1oc2ccc(-c3ccc(F)cc3F)cc2c(=O)n1-c1ccc(F)cc1 , give the reported TGI.
5.34 µM

Entry under review: N#Cc1ccc(/C=N/NC(=O)c2[nH]c3ccc(Br)cc3c2-c2ccccc2)o1 . Reported TGI?
22.2 µM

State the recorded TGI for this entry: O=C(c1ccc(O)cc1)C1[C@H](c2ccc(Cl)cc2)[C@@H](c2ccccc2)NC12C(=O)Nc1ccccc12 (some centres undefined)
12.4 µM

###

- Test system: MDA-MB-468 breast
- Assay overview: NCI tumour cell line growth inhibition, 48 h
Label t when TGI is at or above 4 µM; anything below gets f.

Reported TGI reaches at least 4 µM for N#Cc1ccc(/C=N/NC(=O)c2[nH]c3ccc(Br)cc3c2-c2ccccc2)o1 ?
t

Please tell me: is the molecule Cc1cc(C)cc(Oc2cccc(-c3c(C)nnn3C3CCN(CCN(C)C)CC3)n2)c1 at or over 4 µM in terms of TGI?
f

hey, is TGI for this one >= 4 µM? Clc1cccc(/C=N/Nc2nc(N/N=C/c3cccc(Cl)c3)nc(N3CCOCC3)n2)c1
t

I'd appreciate it if you could say whether O=C(Nc1ccc(Oc2ccc(Nc3nc4ccccc4s3)cc2)cc1)Nc1ccc(Cl)c(C(F)(F)F)c1 has TGI at least equal to 4 µM.
f

Please indicate if the recorded TGI for O=C(/C(=C/c1ccc([N+](=O)[O-])cc1)SCc1ccccc1)c1ccc(Cl)cc1 meets or exceeds 4 µM.
t
